molecular target: PD-L1 His protein / PD-1 Fc protein (Homo sapiens (Human)); test: HTRF Assay (PD-1/PD-L1 interaction); format: binding; details: PD-L1 His 6 nM, PD-1 Fc 6 nM
Consider the following molecules and their measured pIC50 readings.
Reminder that pIC50 means the negative base-10 logarithm of the concentration expressed in mol/L.

Record excerpt, results attached:
>>> print(df.to_string())
                               input_smiles                             tested_system  measured_quantity  recorded_measurement
0  COc1cc(-c2nccc(-c3cccc(-c4cc5c(c(OC)c4)CN(C[C@@H]4CCC(=O)N4)CC5)c3Cl)c2Cl)ccc1CNC[C@@H]1CCC(=O)N1  PD-L1 His protein / PD-1 Fc protein (Homo sapiens (Human))              pIC50                  7.40
1  COc1cc(-c2nccc(-c3cccc(-c4ccc(CN5CC6(C5)CN(C(C)=O)C6)c(OC)n4)c3Cl)c2Cl)cnc1CN1CC2(C1)CN(C(C)=O)C2  PD-L1 His protein / PD-1 Fc protein (Homo sapiens (Human))              pIC50                  9.11
2  COc1cc(-c2nccc(-c3cccc(NC(=O)c4ccc(CNC[C@H](C)O)cn4)c3C)c2Cl)ccc1CNC[C@H](C)O  PD-L1 His protein / PD-1 Fc protein (Homo sapiens (Human))              pIC50                 10.00
3  COCCC(=O)N1CCC(NCc2ccc(-c3nccc(-c4cccc(-c5ccc(CNC6CCN(C(=O)CCOC)CC6)c(OC)n5)c4Cl)c3Cl)cc2OC)CC1  PD-L1 His protein / PD-1 Fc protein (Homo sapiens (Human))              pIC50                  8.90

**Q:** Missing value: pIC50, PD-L1 His protein / PD-1 Fc protein (Homo sapiens (Human)), entry COC(=O)C1(NCc2cc(C(F)(F)F)c(N[C@H]3CCc4c(-c5nccc(-c6ccc(CNC[C@@H]7CCC(=O)N7)c(OC)n6)c5Cl)cccc43)nc2OC)CC1 . Fill in?
**A:** 7.90

**Q:** Test system PD-L1 His protein / PD-1 Fc protein (Homo sapiens (Human)); read-out pIC50; what value for COc1nc(-c2cccc(-c3ccnc(-c4ccc5c(CN(C)C6CCN(C(C)=O)CC6)nn(C)c5c4)c3Cl)c2Cl)ccc1CNC[C@@H]1CCC(=O)N1 ?
**A:** 8.44

**Q:** Please provide the recorded pIC50 for COc1nc(-c2cccc(-c3ccnc(-c4ccc5c(c4)CNC5)c3Cl)c2Cl)ccc1CNC[C@H](C)O , tested on PD-L1 His protein / PD-1 Fc protein (Homo sapiens (Human)).
**A:** 9.14

====

biological target: PD-L1 His protein / PD-1 Fc protein (Homo sapiens (Human), UniProt Q9NZQ7); experiment: HTRF Assay (PD-1/PD-L1 interaction); format: binding; conditions: PD-L1 His 6 nM, PD-1 Fc 6 nM
Sequence (Q9NZQ7 19-238): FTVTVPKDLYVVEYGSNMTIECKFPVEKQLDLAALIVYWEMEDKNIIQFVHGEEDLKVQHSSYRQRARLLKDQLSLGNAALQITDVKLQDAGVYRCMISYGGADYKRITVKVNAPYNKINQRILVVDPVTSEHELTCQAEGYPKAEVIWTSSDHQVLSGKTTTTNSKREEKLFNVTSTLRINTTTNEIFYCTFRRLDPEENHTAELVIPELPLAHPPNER
Below: a set of entries, each annotated with reported pIC50.
API: returns pIC50 as number; meaning -log10 of concentration in mol/L.

**Q:** Recorded pIC50 for COc1cc(-c2nccc(-c3cccc(-c4ccc(CNC[C@@H]5CCC(=O)N5)c(OC)n4)c3Cl)c2Cl)cc(F)c1CN1CC2(CNC(=O)C2)C1 , please?
**A:** 8.69

**Q:** Quick one: pIC50 of CNCc1ccc(-c2ccnc(-c3cccc4c3CC[C@@H]4Nc3nc(OC)c(CNC)cc3C(F)(F)F)c2Cl)nc1OC ?
**A:** 8.09

**Q:** May I ask what pIC50 has been recorded for COc1cc(-c2nccc(-c3cccc(-c4ccc(CNC5CCOCC5)c(OC)n4)c3Cl)c2Cl)ccc1CN(C)C1CCOCC1 ?
**A:** 8.25

====

target: human PD-L1 (Homo sapiens (Human)); assay: T cell activation luciferase reporter cell culture system (T Cell Activation Assay); type: cell-based; details: luciferase reporter assay; PD-L1 aAPC/CHO-K1 cells with PD-1 effector Jurkat T cells
measured.quantity: pEC50
FYI, pEC50 means -log10 of a concentration in mol per litre.

>>> df
                               input_smiles  recorded_measurement
0  COc1nc(-c2cccc(-c3ccnc(-c4cc(Cl)c5c(c4)CCN(CCC(C)(C)O)C5)c3Cl)c2Cl)ccc1CNC[C@@H]1CCC(=O)N1                  7.09
1  COc1cc(-c2nccc(-c3ccnc(-c4ccc5c(CNC[C@@H]6CCC(=O)N6)cn(C)c5c4)c3Cl)c2Cl)ccc1CNC[C@@H]1CCC(=O)N1                  6.78

Now look at this one.
**Q:** Which value of pEC50 has been reported for COc1cc(-c2nccc(-c3cccc(-c4ccc(CNC5CCN(C(C)=O)CC5)c(OC)n4)c3Cl)c2Cl)ccc1CNC1CCOCC1 in the records?
**A:** 7.75

====

target: human PD-L1 (Homo sapiens (Human), UniProt Q9NZQ7); experiment: T cell activation luciferase reporter cell culture system (T Cell Activation Assay); type: cell-based; conditions: luciferase reporter assay; PD-L1 aAPC/CHO-K1 cells with PD-1 effector Jurkat T cells
Sequence (Q9NZQ7 19-290): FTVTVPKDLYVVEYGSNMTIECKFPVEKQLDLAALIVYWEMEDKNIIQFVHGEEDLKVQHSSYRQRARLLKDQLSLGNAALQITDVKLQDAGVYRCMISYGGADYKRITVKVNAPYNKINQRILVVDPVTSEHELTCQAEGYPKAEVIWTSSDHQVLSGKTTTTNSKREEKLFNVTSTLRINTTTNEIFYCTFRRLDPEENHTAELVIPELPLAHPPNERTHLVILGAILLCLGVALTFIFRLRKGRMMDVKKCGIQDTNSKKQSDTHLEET
Using EC50 as the sorting value, the categories are low end = under 30 nM, middle = from 30 nM up to 200 nM, high end = 200 nM and over

Consider the worked cases shown below.
>>> df
                               input_smiles                             tested_system  discrete_label
0  COc1cc(-c2nccc(-c3cccc4c3CCC[C@@H]4Nc3nc(OC)c(CNC4(C(=O)O)CC4)cc3C(F)(F)F)c2Cl)ccc1CNC[C@@H]1CCC(=O)N1  human PD-L1 (Homo sapiens (Human), UniProt Q9NZQ7)        high end
1  COc1cc(-c2nccc(-c3cccc(-c4ccc(CNC[C@H]5CCC(=O)N5)c(OC)n4)c3Cl)c2Cl)ccc1CNC[C@H]1CCC(=O)N1  human PD-L1 (Homo sapiens (Human), UniProt Q9NZQ7)         low end
2  COc1nc(-c2ccnc(-c3cccc4c3CCC[C@@H]4Nc3nc(OC)c(CN4CC5(CNC(=O)C5)C4)cc3C(F)(F)F)c2Cl)ccc1CNC[C@@H]1CCC(=O)N1  human PD-L1 (Homo sapiens (Human), UniProt Q9NZQ7)        high end

**Q:** Determine which band this molecule sits in: COc1cc(-c2nccc(-c3cccc(-c4ccc(CNC[C@@H]5CCC(=O)N5)c(OC)n4)c3Cl)c2Cl)ccc1CN[C@@H](C)C(=O)O
**A:** middle

**Q:** For COc1cc(-c2nccc(-c3cccc(-c4ccc(CN5CC6(C5)CN(C(C)=O)C6)c(OC)n4)c3C)c2Cl)ccc1CN1CC2(C1)CN(C(C)=O)C2 , which EC50 bin applies?
**A:** high end

**Q:** Bin this entry: CNCc1cc(OC)cc(-c2nccc(-c3cccc(-c4ccc(CNC)c(OC)n4)c3Cl)c2Cl)c1
**A:** high end

**Q:** Looking at COc1cc(-c2ncnc(-c3cccc(-c4ccc(CNC[C@@H]5CCC(=O)N5)c(OC)n4)c3Cl)c2Cl)ccc1CN1CC2(CNC(=O)C2)C1 , which class would you pick?
**A:** low end

**Q:** The entry to classify is COc1cc(-c2nccc(-c3cccc(NC(=O)c4ccc(CNC[C@@H]5CCC(=O)N5)cn4)c3C)c2Cl)ccc1CNC1CCOCC1 ; which class holds it?
**A:** high end

**Q:** Which band does COc1nc(-c2cccc(-c3ccnc(-c4ccc5c(c4)CCC[C@H]5NC[C@@H]4CCC(=O)N4)c3Cl)c2Cl)ccc1CN1CC2(CNC(=O)C2)C1 fall in?
**A:** high end

**Q:** Hi there! Could you help me figure out the category for COc1cc(-c2nccc(-c3cccc(-c4ccc(CNC5CC6(COC6)C5)c(OC)n4)c3Cl)c2Cl)cc2c1CN(CCCF)CC2 please?
**A:** middle

**Q:** Dear colleague, I would appreciate it if you could identify the bin for COc1cc(CNC2CCN(C(C)=O)CC2)cc(-c2nccc(-c3cccc(-c4ccc(CNC5CCN(C(C)=O)CC5)c(OC)n4)c3Cl)c2Cl)c1 and reply at your convenience.
**A:** high end

**Q:** Hi, small favor: classify COc1cc(-c2nccc(-c3cccc(-c4ccc(CNC[C@@H]5CCC(=O)N5)c(OC)n4)c3Cl)c2Cl)cc(F)c1CNC[C@@H]1CCC(=O)N1 by its EC50 when you get a moment.
**A:** low end

**Q:** Which category fits this record: COc1cc(-c2ncnc(-c3cccc(-c4ccc(CNC[C@@H]5CCC(=O)N5)c(OC)n4)c3Cl)c2Cl)ccc1CNC[C@@H]1CCC(=O)N1
**A:** low end

**Q:** Categorize the following entry: COc1cc(-c2nccc(-c3cccc(-c4ccc(CNC[C@@H]5CCC(=O)N5)c(OC)n4)c3Cl)c2Cl)cc(F)c1CNCC(C)C
**A:** middle

**Q:** In plain terms, what class is COc1nc(-c2cccc(-c3ccnc(-c4cc(OC)c5nc(CN6CCC(F)(F)C6)cn5c4)c3Cl)c2Cl)ccc1CNC1CCN(C(C)=O)CC1 ?
**A:** high end
